- ASSAY DETAILS: survival rescue of mitochondrial mutant cells in low glucose, primary screen, MELAS cybrids, Rieske KO mouse fibroblasts, CellTiter-Glo (AID 1508586);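 further: test concentration not given here; z relative to plate mean and SD of compound and empty wells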
- ASSAY CONTEXT: MELAS cybrid survival, CellTiter-Glo 48 h, active compounds read high
Below, each entry is listed alongside its reported z-score.
Reply with just the number.

See these solved cases before continuing.
COc1ccc(Nc2ncc(-c3ccccc3)o2)cc1OC: 1.52
CN(C)CCc1c[nH]c2ccc(C[C@H]3COC(=O)N3)cc12: 0.816
CN(C)c1ccc2[nH]c(O)c(C=Nc3ccc(S(N)(=O)=O)cc3)c2c1: 1.57
COc1cc(/C=N/Nc2ncnc3c2cnn3Cc2ccccc2)ccc1O: 1.43
CN(C)CCNC(=O)Nc1ccc(N(C)c2ccnc(Nc3ccc(CS(C)(=O)=O)cc3)n2)cc1: -0.741
CCn1c(-c2nonc2N)nc2c(C#CCN)ncc(OCCCN)c21: -0.193
COc1ccc2ncn(-c3cc(O[C@H](C)c4ccccc4Cl)c(C(N)=O)s3)c2c1: -0.983
O=C(Nc1n[nH]c2cc(-c3ccc(F)cc3)ccc12)C1CC1: -1.18

IN: GET /values?readout=z-score&item= `c1cnn2ncc(-c3ccnc(NCCCN4CCOCC4)n3)c2c1`
OUT: -0.792

IN: GET /values?readout=z-score&item= `CCN1CCC(CC(=O)Nc2n[nH]c3nc(-c4cccs4)c(Br)cc23)CC1`
OUT: 0.148

IN: GET /values?readout=z-score&item= `CCn1c(-c2nonc2N)nc2c(C#CC(C)(C)O)ncc(OCC3CCNCC3)c21`
OUT: 0.123

IN: GET /values?readout=z-score&item= `CCc1cccc(NC(=O)Nc2ccc(Oc3ccc4nc(NC(=O)OC)[nH]c4c3)cc2)c1`
OUT: -0.411

IN: GET /values?readout=z-score&item= `Fc1ccc(-c2ncn(C3CCNCC3)c2-c2ccnc(Oc3ccc4c(c3)OCO4)n2)cc1`
OUT: -0.249

IN: GET /values?readout=z-score&item= `Cc1ccc2c(-c3ccnc(Nc4ccc5c(c4)OCCO5)n3)c(-c3ccc(C(F)(F)F)cc3)nn2n1`
OUT: -0.379

IN: GET /values?readout=z-score&item= CC(COc1ccccc1)NC(C)C(O)c1ccc(O)cc1 (stereo unspecified)
OUT: 0.843

IN: GET /values?readout=z-score&item= `O=C1NC(=O)C(c2cccc(Cl)c2)=C1Nc1ccc(Cl)c(C(=O)O)c1`
OUT: -0.755

IN: GET /values?readout=z-score&item= `Cc1ccc(O)c([C@H](CCN(C(C)C)C(C)C)c2ccccc2)c1`
OUT: -0.175

IN: GET /values?readout=z-score&item= `CC(=O)[C@H]1CC[C@H]2[C@@H]3C[C@H](C)C4=CC(=O)CC[C@]4(C)[C@H]3[C@@H](O)C[C@]12C`
OUT: 0.756

Attribution: PubChem BioAssay
